Tested on: lss
Assay: Real-time quantitative PCR of PLsis marker gene expression
Type: cell-based, human
Details: HepG2 cells, 24 hr exposure, relative value, control group = 1.0, GAPDH internal standard, n=3
Experimental readout: expression variation rate lss

Quick note, expression variation rate lss for O=C(NCC1CCCCN1)c1cc(OCC(F)(F)F)ccc1OCC(F)(F)F (centres unmarked) [flecainide] landed at 1.22

[1] CC[C@H]1OC(=O)[C@H](C)[C@@H](O[C@H]2C[C@@](C)(OC)[C@@H](O)[C@H](C)O2)[C@H](C)[C@@H](O[C@@H]2O[C@H](C)C[C@H](N(C)C)[C@H]2O)[C@](C)(OC)C[C@@H](C)C(=O)[C@H](C)[C@@H](O)[C@]1(C)O [clarithromycin]
[2] CSc1ccc2c(c1)N(CCC1CCCCN1C)c1ccccc1S2 (centres unmarked) [thioridazine]
Identify the item whose expression variation rate lss is the smaller number: 1 or 2 Your answer should be the label of the entry you select.
1
(1: 0.65, 2: 2.03)

[1] CC(=O)Nc1ccc(O)cc1 [acetaminophen]
[2] CNCCC(Oc1ccc(C(F)(F)F)cc1)c1ccccc1 (centres unmarked) [fluoxetine]
// compare measured expression variation rate lss between 1 and 2 ; output the lower one Give the label of your selection.
1

[I] CC(=O)N1CCN(c2ccc(OCC3COC(Cn4ccnc4)(c4ccc(Cl)cc4Cl)O3)cc2)CC1 (centres unmarked) [ketoconazole]
[II] Cc1cc(NS(=O)(=O)c2ccc(N)cc2)no1 [sulfamethoxazole]
// compare measured expression variation rate lss between I and II ; output the lower one Output the label that corresponds to your choice.
II

* * *

Test system: tagln
Assay: Real-time quantitative PCR of PLsis marker gene expression
Type: cell-based, human
Conditions: HepG2 cells, 24 hr exposure, relative value, control group = 1.0, GAPDH internal standard, n=3
Experimental readout: expression variation rate tagln

Use these answered entries as a reference point.
Sure, the documented expression variation rate tagln for C=C[C@H]1C[N@@]2CC[C@H]1C[C@@H]2[C@@H](O)c1ccnc2ccc(OC)cc12 is 0.63

Reported expression variation rate tagln for CN[C@H]1CC[C@@H](c2ccc(Cl)c(Cl)c2)c2ccccc21 was 0.37

[a] CC[C@H]1OC(=O)[C@H](C)[C@@H](O[C@H]2C[C@@](C)(OC)[C@@H](O)[C@H](C)O2)[C@H](C)[C@@H](O[C@@H]2O[C@H](C)C[C@H](N(C)C)[C@H]2O)[C@](C)(O)C[C@@H](C)C(=O)[C@H](C)[C@@H](O)[C@]1(C)O
[b] CCCCc1oc2ccccc2c1C(=O)c1cc(I)c(OCCN(CC)CC)c(I)c1
Return label of the item with the larger expression variation rate tagln. Candidates: a , b . Your choice should be expressed through its label.
a
(a: 0.85, b: 0.56)

[1] Cc1cc(NS(=O)(=O)c2ccc(N)cc2)no1
[2] CN(C)C/C=C(/c1ccc(Br)cc1)c1cccnc1
Between the entries labelled 1 and 2 , which has a larger expression variation rate tagln value on record? To answer, give the label that identifies your chosen option.
1

* * *

Test system: serpina3
Experiment: Real-time quantitative PCR of PLsis marker gene expression
Type: cell-based, human
Conditions: HepG2 cells, 24 hr exposure, relative value, control group = 1.0, GAPDH internal standard, n=3
Experimental readout: expression variation rate serpina3

Input CCCCc1oc2ccccc2c1C(=O)c1cc(I)c(OCCN(CC)CC)c(I)c1 [amiodarone] . Output expression variation rate serpina3: 1.17

Briefly, expression variation rate serpina3 measured for CC[C@H]1OC(=O)[C@H](C)[C@@H](O[C@H]2C[C@@](C)(OC)[C@@H](O)[C@H](C)O2)[C@H](C)[C@@H](O[C@@H]2O[C@H](C)C[C@H](N(C)C)[C@H]2O)[C@](C)(OC)C[C@@H](C)C(=O)[C@H](C)[C@@H](O)[C@]1(C)O [clarithromycin] : 1.39

expression variation rate serpina3 reported for this molecule Clc1ccccc1CNCC1CCC(CNCc2ccccc2Cl)CC1 (stereo not drawn) [AY-9944] : 1.97

* * *

System: lss
Assay: Real-time quantitative PCR of PLsis marker gene expression
Format: cell-based, human
Details: HepG2 cells, 24 hr exposure, relative value, control group = 1.0, GAPDH internal standard, n=3
Experimental readout: expression variation rate lss

For CNS(=O)(=O)Cc1ccc2[nH]cc(CCN(C)C)c2c1 [sumatriptan] the compound record lists expression variation rate lss as 1.23

Data point: O=C(CCCN1CCC(O)(c2ccc(Cl)cc2)CC1)c1ccc(F)cc1 [haloperidol] ; expression variation rate lss = 1.52

For reference, reported expression variation rate lss for CCN(CC)CCNC(=O)c1ccc(N)cc1 [procainamide] stands at 0.90

[a] CN(C)CCCN1c2ccccc2Sc2ccc(Cl)cc21 [chlorpromazine]
[b] CC(C)N(CCC(C(N)=O)(c1ccccc1)c1ccccn1)C(C)C (stereo not drawn) [disopyramide]
[c] CC1COc2c(N3CCN(C)CC3)c(F)cc3c(=O)c(C(=O)O)cn1c23 (stereo not drawn) [ofloxacin]
Let's sort these by expression variation rate lss, smallest first. Go ahead? Write the labels, ordered according to the request.
c, b, a

* * *

System: asah1
Experiment: Real-time quantitative PCR of PLsis marker gene expression
Format: cell-based, human
Conditions: HepG2 cells, 24 hr exposure, relative value, control group = 1.0, GAPDH internal standard, n=3
Description: Using RNeasy Mini Kit (QIAGEN), total RNA was purified from the cells, and cDNA was synthesized in a 100 μL system using TaqMan Reverse Transcription Reagents (PE Applied Biosystems). As the primer for glyceraldehyde-3-phosphoric acid dehydrogenase (GAPDH) and VIC labeled probe, those attached to TaqMan GAPDH Control Reagents (PE Applied Biosystems) were used. […] For each test compound, the expression variation rate of 12 genes each relative to the control group was determined.
Experimental readout: expression variation rate asah1

Kindly note the recorded expression variation rate asah1 for CC(=O)Nc1ccc(O)cc1 [acetaminophen] , which is 1.18

Reported expression variation rate asah1 for C[C@H]1COc2c(N3CCN(C)CC3)c(F)cc3c(=O)c(C(=O)O)cn1c23 [levofloxacin] was 1.10

Value of expression variation rate asah1 reported for the compound CC[C@H]1OC(=O)[C@H](C)[C@@H](O[C@H]2C[C@@](C)(OC)[C@@H](O)[C@H](C)O2)[C@H](C)[C@@H](O[C@@H]2O[C@H](C)C[C@H](N(C)C)[C@H]2O)[C@](C)(O)C[C@@H](C)C(=O)[C@H](C)[C@@H](O)[C@]1(C)O [erythromycin] is 0.90

* * *

Tested on: HepG2 cells
Assay: Electron-microscopic examination of PLsis induction potential (myelin-like structure)
Experimental readout: frequency of appearance of myelin-like structure

Lab entry: HepG2 cells assay, molecule CC[C@H]1OC(=O)[C@H](C)[C@@H](O[C@H]2C[C@@](C)(OC)[C@@H](O)[C@H](C)O2)[C@H](C)[C@@H](O[C@@H]2O[C@H](C)C[C@H](N(C)C)[C@H]2O)[C@](C)(OC)C[C@@H](C)C(=O)[C@H](C)[C@@H](O)[C@]1(C)O , frequency of appearance of myelin-like structure = −

Record C1CCC(C(CC2CCCCN2)C2CCCCC2)CC1 (stereo not shown) ; system HepG2 cells; frequency of appearance of myelin-like structure = ++

Summary line: CSc1ccc2c(c1)N(CCC1CCCCN1C)c1ccccc1S2 (stereo not shown) , HepG2 cells, reported frequency of appearance of myelin-like structure = +

The reported HepG2 cells frequency of appearance of myelin-like structure of CN[C@H]1CC[C@@H](c2ccc(Cl)c(Cl)c2)c2ccccc21 is ++

* * *

Tested on: kiaa1001
Assay: Real-time quantitative PCR of PLsis marker gene expression
Format: cell-based, human
Settings: HepG2 cells, 24 hr exposure, relative value, control group = 1.0, GAPDH internal standard, n=3
Experimental readout: expression variation rate kiaa1001

Field expression variation rate kiaa1001 (system: kiaa1001) for entry CN1CCN(C2=Nc3cc(Cl)ccc3Nc3ccccc32)CC1 = 3.34

Case CN[C@H]1CC[C@@H](c2ccc(Cl)c(Cl)c2)c2ccccc21 , kiaa1001, expression variation rate kiaa1001 recorded as 2.38

Assay kiaa1001, sample CN(C)C/C=C(/c1ccc(Br)cc1)c1cccnc1 , expression variation rate kiaa1001 read: 2.24

Log: kiaa1001, compound CN(C)CCCN1c2ccccc2CCc2ccc(Cl)cc21 , expression variation rate kiaa1001 = 3.83

[a] CC[C@H]1OC(=O)[C@H](C)[C@@H](O[C@H]2C[C@@](C)(OC)[C@@H](O)[C@H](C)O2)[C@H](C)[C@@H](O[C@@H]2O[C@H](C)C[C@H](N(C)C)[C@H]2O)[C@](C)(O)C[C@@H](C)C(=O)[C@H](C)[C@@H](O)[C@]1(C)O
[b] CN(C)CCCN1c2ccccc2Sc2ccc(Cl)cc21
Would you mind telling me which has the lower recorded expression variation rate kiaa1001 between a and b ? Your answer should be the label of the entry you select.
a
(a: 0.78, b: 1.90)
